Assay: NCI Yeast Anticancer Drug Screen. Data for the wt1 strain (AID 149);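 also: 0% = growth of vehicle-treated wt1 cultures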
Conditions: S. cerevisiae wt1 strain (SPY 50644) growth inhibition; at 11.0 µM
The panel holds about 79,000 compounds, 15% with a hit somewhere; the sample as a whole holds those more often. Activity calls are given as the source filed them. Rule as the data show it: active = growth inhibition above about 70%; inactive = the rest.
One label from this list, please: true for active, false for inactive

Some solved cases for reference:
O=C1CCC(Cc2ccccc2)CN1 (stereo not drawn) : false
CC12CCC(CC(=O)/C1=C(/Br)I)C2(C)C (stereo not drawn) : false
COc1ccc2cc(C(C)C(=O)N3CCOC3=O)ccc2c1 (stereo not drawn) : false
CCCCN(CCC#N)c1ccc(/C=C/c2ccnc3ccccc23)cc1 : false

## Task Kindly provide the recorded test outcome for the following compound: Cc1cc(C)c2[s+]snc2c1
## Result false

## Task Kindly provide the recorded test outcome for the following compound: BrC1C2CCC3OC3C12 (stereo not drawn)
## Result true

## Task Kindly provide the recorded test outcome for the following compound: O=C(NO)c1coc2ccccc2c1=O
## Result false

## Task Kindly provide the recorded test outcome for the following compound: COc1ccc(C(OCC2OC(n3cnc4c(=O)n(Cc5ccccc5[N+](=O)[O-])nnc43)C(O)C2O)(c2ccccc2)c2ccc(OC)cc2)cc1 (stereo not drawn)
## Result false

## Task Kindly provide the recorded test outcome for the following compound: COC(=O)C(Cl)(Cl)N=Nc1c(Cl)cc(Cl)c(C)c1Cl
## Result true

## Task Kindly provide the recorded test outcome for the following compound: O=C(Oc1ccc([N+](=O)[O-])cc1)c1ccc([N+](=O)[O-])cc1
## Result false

## Task Kindly provide the recorded test outcome for the following compound: O=[N+]([O-])c1cc(Cl)ccc1S(=O)(=O)c1ccc(Cl)cc1[N+](=O)[O-]
## Result false

## Task Kindly provide the recorded test outcome for the following compound: O=C(CCCN1CCC(Nc2ccc(F)cc2)(c2nnnn2C2CCCCC2)CC1)c1ccc(F)cc1
## Result false

----------
A collection of compounds and their measured growth inhibition
Test: NCI Yeast Anticancer Drug Screen. Data for the sgs1 mgt1 strain (AID 161);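 also: 0% = growth of cultures given vehicle only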
Details: S. cerevisiae sgs1 mgt1 strain, at 50.0 µM (retest, dose inferred, filed as 5.0), active compounds read high
The panel holds about 79,000 compounds, 15% with a hit somewhere; the sample as a whole holds those more often.
The reply should contain only the number, in %.

CCC[CH2][Ge]([CH2]CCC)([CH2]CCC)[O]C(=O)C(O)c1ccccc1 (configuration not stated) : 97
O=C1c2ccccc2N2OC3(N4CCCC4)CCCCC3C12c1ccccc1 (configuration not stated) : -18
COC(=O)C1CCCCC1C(=O)Nc1ccccc1 (configuration not stated) : -26
COc1cc([C@@H]2c3cc4c(cc3[C@@H](NC(=O)NO)[C@H]3COC(=O)[C@H]23)OCO4)cc(OC)c1O : 2
O=C1C(=C2CCCC2)CCC1CN1CCCCC1 (configuration not stated) : 57
CCCCCCCCCCCCCCCCCCNC(=S)/N=C/c1c(O)c2ccccc2[nH]c1=O : 26

The compound listed as CCOc1ccc(N)c(S)c1 has a reported growth inhibition of 97

The compound listed as CC(C)(C)c1ccc2c(c1)C(=O)c1ccccc1C2=O has a reported growth inhibition of 20

----------
Experiment: NCI Yeast Anticancer Drug Screen. Data for the wt1 strain (AID 149);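 also: 0% = growth of vehicle-treated wt1 cultures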
Conditions: S. cerevisiae wt1 strain (SPY 50644) growth inhibition; at 3.7 µM; active compounds read high
About 79,000 compounds went through this panel and 15% of them were active in at least one assay; those are over-represented in the sample as a whole.
experimentalEndpoint: growth inhibition (%)
The reply should contain only the number, in %.

// known answers, use as guide
CN(C)CCCn1c2c3ccccc3ccc2c2oc(=O)c3ccccc3c21 : -7
CC1=NN(C(=O)CC(=O)NC(=O)/C=C\c2ccccc2)C(=O)C1N=Nc1ccc([N+](=O)[O-])cc1 (stereo not drawn) : 4
O=C(O)C1CCCCC1c1c2ccc(=O)cc-2oc2cc(O)ccc12 (stereo not drawn) : -19
Nc1cc(Cl)ccc1Nc1ccccc1 : -26
CCN(CC)CCNc1ccc2nc(C)n3c4ccc(OC)cc4c(=O)c1c23 : 21

The compound listed as CCC(=O)Nc1ccc(N=NN(C)C)cc1 has a reported growth inhibition of 2

The compound listed as Cc1ccc(Nc2n[nH]c(=S)s2)c(C)c1 has a reported growth inhibition of -3

The compound listed as O=C1C(/C=C/c2ccc(Cl)cc2)=NNC2N1N=C1NC(=O)C3(NN12)c1ccccc1-c1ccccc13 (stereo not drawn) has a reported growth inhibition of 2

The compound listed as CC(C)(Br)C(=O)/C=C/c1ccccc1 has a reported growth inhibition of 9

----------
Test: NCI Yeast Anticancer Drug Screen. Data for the mec2-1 strain (AID 157)
Settings: S. cerevisiae mec2-1 strain, at 5.0 µM (retest, dose inferred, filed as 0.5), active compounds read high
About 79,000 compounds went through this panel and 15% of them were active in at least one assay; those are over-represented in the sample as a whole.
A collection of molecules and their measured growth inhibition
The reply should contain only the number, in %.

O=C(Nn1c(-c2ccccc2)nc2ccccc2c1=O)c1ccc(CS)cc1 : -23
CCN1CCC(O)(c2ccc(Oc3ccc(C)cc3)cc2)C(C(=O)c2ccc(Oc3ccc(C)cc3)cc2)C1 (stereo not drawn) : 2
CCN1CCC(O)(c2ccc(Oc3ccc(Cl)cc3)cc2)C(C(=O)c2ccc(Oc3ccc(Cl)cc3)cc2)C1 (stereo not drawn) : 68
CNC(=O)OCc1c2ccncc2c(C)c2c1[nH]c1ccccc12 : 56
CCOC(=S)SSSC(=S)OCC : 87
Nc1ccc2c(c1)C(=O)c1c(F)cccc1-2 : -48
CC(C)[Si]1(C(C)C)OCC2OC(n3cnc4c(N)ncnc43)C(N)C2O[Si](C(C)C)(C(C)C)O1 (stereo not drawn) : 14
CCc1c(Cl)c(C)c(Cl)c(O)c1Cl : 61
N#CCCC1C(C#N)C2(Cl)CC1(Cl)C(Cl)=C2Cl (stereo not drawn) : -16
CN(C)CC1=Nc2cccc3cccc(c23)N1 : -12

The molecule listed as Cc1ccc(NC(Nc2ccc(C)cc2C)=C(C(Cl)=C(Cl)Cl)[N+](=O)[O-])c(C)c1 has a reported growth inhibition of 74

The molecule listed as O=C(C#Cc1ccccc1)Nc1ccccc1 has a reported growth inhibition of -48

The molecule listed as CNC(=O)OCc1c(COC(=O)NC)c(C)n(-c2ccc(Br)cc2)c1C has a reported growth inhibition of 22

----------
Test: NCI Yeast Anticancer Drug Screen. Data for the rad50EPP+ strain (AID 151);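 also: 0% = growth of vehicle-treated control cultures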
Settings: S. cerevisiae rad50 mutant strain, at 100.0 µM, active compounds read high
This is part of a sample that, as a whole, favours compounds with a hit. Of some 79,000 tested, about 15% had one in any assay.
experimentalEndpoint: growth inhibition (%)
The reply should contain only the number, in %.

// known answers, use as guide
O=C(CCCN1CCC(Nc2ccc(F)cc2)(c2nnnn2C2CCCCC2)CC1)c1ccc(F)cc1 : 25
COc1cc2oc3ccccc3c(=O)c2cc1CSc1ccccc1N : 16
O=C1c2ccccc2C(=O)c2c(O)c(NCCNCCO)cc(O)c21 : 92

The compound listed as Cc1cc(O)c(C(C)C)cc1SC#N has a reported growth inhibition of 89

The compound listed as CC(C)S(=O)(=O)/C=C\S(=O)(=O)C(C)C has a reported growth inhibition of 25

The compound listed as CCCCCCCCCCCCCCCCCCNC(=S)/N=C/c1c(O)c2ccccc2[nH]c1=O has a reported growth inhibition of 40

The compound listed as O=[N+]([O-])[O][Sn]([O][Sn]([O][N+](=O)[O-])([c]1ccccc1)[c]1ccccc1)([c]1ccccc1)[c]1ccccc1 has a reported growth inhibition of 99

The compound listed as CN(C)CC1=Nc2cccc3cccc(c23)N1 has a reported growth inhibition of 13

The compound listed as CC1=CC(C)(C)SC(SSSC2=NC(C)=CC(C)(C)S2)=N1 has a reported growth inhibition of 31

The compound listed as CCOP(=O)(OCC)/C(C#N)=C/c1ccc(-c2ccc(F)cc2F)o1 has a reported growth inhibition of 5

The compound listed as O=C1Nc2ccc(Br)cc2C1=Nc1ccc(Cl)cc1 has a reported growth inhibition of 41

----------
Assay: NCI Yeast Anticancer Drug Screen. Data for the sgs1 strain (AID 173);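 also: 0% = growth of vehicle-only control cultures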
Conditions: S. cerevisiae sgs1 mutant, at 100.0 µM
Compounds without any hit were thinned out: in the full panel of roughly 79,000, 15% have a hit. Calls of active or inactive are those of the source. No stated cut-off is given here; in the data, active means growth inhibition above about 70%; inactive means the rest.
One label from this list, please: Yes = active, No = inactive

CC(C)(CN1CCCCC1)C(=O)/C=C/c1c(Cl)cccc1Cl : Yes

## Task Kindly provide the recorded test outcome for the following molecule: Fc1ccc(Nc2ccc3ccccc3c2)cc1
## Result Yes

----------
A collection of molecules and their measured growth inhibition
Assay: NCI Yeast Anticancer Drug Screen. Data for the rad50 strain (AID 155);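 also: 0% = growth of vehicle-only cultures of the same strain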
Conditions: S. cerevisiae rad50 strain growth inhibition; at 3.7 µM; active compounds read high
About 79,000 compounds went through this panel and 15% of them were active in at least one assay; those are over-represented in the sample as a whole. Calls of active or inactive are those of the source. Cut-off read from the data, not from the text of the source: active = growth inhibition above about 70%; inactive = the rest.

Cc1ccccc1NC(=O)c1c(C)oc2c1C(=O)c1ccccc1C2=O : -12% (inactive)
CCCN=Cc1cc(Cc2ccc(O)c(C=NCCC)c2)ccc1O : 97% (active)

The molecule listed as O=C1C(CCSc2ccccc2)C(=O)N(c2ccccc2)C1c1ccccc1 (stereo unspecified) has a reported growth inhibition of 17% (inactive)

The molecule listed as CCOC(=O)C(Cc1c2ccccc2cc2ccccc12)(NC(C)=O)C(=O)OCC has a reported growth inhibition of -16% (inactive)

The molecule listed as Fc1cc(F)c(F)c(S)c1F has a reported growth inhibition of -28% (inactive)

The molecule listed as CCN(CC)C(=S)SC(=S)N(CC)CC has a reported growth inhibition of 15% (inactive)
